assay: Mouse pharmacokinetics, oral single and repeat dose; format: in vivo; details: mouse, plasma; female C57 mice, 15 mg/kg PO NMP
Property Label: Cmax (ng/mL)
The response must be a number in ng/mL with no trailing unit.

Exercise: Given the compound Cc1c(C#Cc2cccc3nc([C@H](C)NC(=O)c4c(N)nn5cccnc45)n(-c4ccccc4)c(=O)c23)cnn1C [Compound 88] , write its reported Cmax.
Key: 5700

###

molecular target: PI3K-β in 786-O cells (Homo sapiens (Human), UniProt P42338); assay: PI3K-β selective cellular assay (phospho-AKT)
Sequence (P42338 whole entry): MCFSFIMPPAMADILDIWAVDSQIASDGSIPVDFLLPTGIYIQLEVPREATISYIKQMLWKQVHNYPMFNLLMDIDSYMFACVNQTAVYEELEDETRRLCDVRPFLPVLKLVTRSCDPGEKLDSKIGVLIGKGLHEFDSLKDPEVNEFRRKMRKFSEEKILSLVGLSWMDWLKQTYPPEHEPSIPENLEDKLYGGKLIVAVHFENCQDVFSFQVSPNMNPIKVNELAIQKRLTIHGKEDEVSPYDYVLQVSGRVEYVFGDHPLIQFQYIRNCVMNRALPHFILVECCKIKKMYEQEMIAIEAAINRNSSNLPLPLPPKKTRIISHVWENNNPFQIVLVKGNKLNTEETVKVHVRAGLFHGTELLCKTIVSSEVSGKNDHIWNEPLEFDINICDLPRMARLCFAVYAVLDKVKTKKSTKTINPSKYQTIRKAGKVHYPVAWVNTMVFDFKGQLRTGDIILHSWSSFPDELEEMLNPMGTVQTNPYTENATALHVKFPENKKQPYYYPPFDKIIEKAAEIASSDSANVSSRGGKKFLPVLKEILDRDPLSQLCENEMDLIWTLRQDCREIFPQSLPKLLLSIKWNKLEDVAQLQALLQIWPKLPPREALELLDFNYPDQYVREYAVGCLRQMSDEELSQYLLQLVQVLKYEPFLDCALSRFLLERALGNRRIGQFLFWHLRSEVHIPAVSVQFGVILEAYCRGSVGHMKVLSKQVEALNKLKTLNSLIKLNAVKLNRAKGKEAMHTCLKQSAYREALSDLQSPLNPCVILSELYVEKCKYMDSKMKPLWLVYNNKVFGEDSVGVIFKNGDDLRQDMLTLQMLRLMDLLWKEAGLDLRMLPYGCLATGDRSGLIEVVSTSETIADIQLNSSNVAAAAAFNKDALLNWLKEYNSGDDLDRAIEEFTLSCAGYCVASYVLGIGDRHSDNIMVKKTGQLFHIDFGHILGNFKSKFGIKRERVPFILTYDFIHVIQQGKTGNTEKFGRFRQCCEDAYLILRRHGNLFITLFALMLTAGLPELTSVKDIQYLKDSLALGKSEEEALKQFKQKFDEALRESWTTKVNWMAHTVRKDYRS
Sequence (P27986 whole entry partner): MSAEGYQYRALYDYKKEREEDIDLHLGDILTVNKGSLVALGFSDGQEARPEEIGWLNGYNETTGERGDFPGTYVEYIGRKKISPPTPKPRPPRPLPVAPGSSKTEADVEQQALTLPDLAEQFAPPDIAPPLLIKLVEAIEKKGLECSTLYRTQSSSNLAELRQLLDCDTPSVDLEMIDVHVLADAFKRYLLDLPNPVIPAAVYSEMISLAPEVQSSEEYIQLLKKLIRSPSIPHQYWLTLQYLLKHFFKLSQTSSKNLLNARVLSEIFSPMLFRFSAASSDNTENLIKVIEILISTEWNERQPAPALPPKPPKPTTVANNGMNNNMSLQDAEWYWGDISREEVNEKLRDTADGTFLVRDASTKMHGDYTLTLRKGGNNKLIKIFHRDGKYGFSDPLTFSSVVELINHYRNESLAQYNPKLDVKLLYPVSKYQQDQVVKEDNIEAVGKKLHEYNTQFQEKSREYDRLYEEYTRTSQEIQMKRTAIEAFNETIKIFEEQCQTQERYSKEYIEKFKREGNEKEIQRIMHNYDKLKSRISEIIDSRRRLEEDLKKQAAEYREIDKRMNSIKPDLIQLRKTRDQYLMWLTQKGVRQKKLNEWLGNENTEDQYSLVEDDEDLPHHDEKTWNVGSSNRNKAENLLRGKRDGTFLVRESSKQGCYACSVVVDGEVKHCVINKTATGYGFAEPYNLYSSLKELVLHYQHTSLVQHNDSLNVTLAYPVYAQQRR
Property Label: IC50 (nM)
The response must be a number in nM with no trailing unit.

Exercise: Given the molecule CC(C)n1c([C@H](C)Nc2ncnc(N)c2C#N)cc2cccc(-c3ccc(=O)n(C)c3)c2c1=O [Compound AA, reference compound] , write its reported IC50.
Key: 102

###

biological target: UniProt P42338; assay: PI3-Kinase Promega ADP-Glo Max assay; assay type: biochemical
Property Label: IC50

Known IC50 results, listed for orientation:
| Compound | IC50 |
| --- | --- |
| C[C@H](NC(=O)c1c(N)nn2cccnc12)c1cc2cccc(C#Cc3cn[nH]c3)c2c(=O)n1-c1ccccc1 | 1 to 5 µM |
| C[C@H](NC(=O)c1cnn2cccnc12)c1cc2cccc(C#Cc3cnn(C)c3)c2c(=O)n1-c1ccccc1 | 5 to 10 µM |
| COc1ncc(C#Cc2cccc3cc([C@H](C)NC(=O)c4c(N)nn5cccnc45)n(-c4ccccc4)c(=O)c23)cn1 | 5 to 10 µM |

We now examine a further compound.
Exercise: Given the compound C[C@H](NC(=O)c1c(N)nn2cccnc12)c1cc2cccc(C#CC3CCN(C)CC3)c2c(=O)n1-c1ccccc1 , write its reported IC50.
Key: 5 to 10 µM

###

Here we list compounds with their recorded IC50 when tested on PI3K δ (Homo sapiens (Human), UniProt O00329).
Sequence (O00329 whole entry): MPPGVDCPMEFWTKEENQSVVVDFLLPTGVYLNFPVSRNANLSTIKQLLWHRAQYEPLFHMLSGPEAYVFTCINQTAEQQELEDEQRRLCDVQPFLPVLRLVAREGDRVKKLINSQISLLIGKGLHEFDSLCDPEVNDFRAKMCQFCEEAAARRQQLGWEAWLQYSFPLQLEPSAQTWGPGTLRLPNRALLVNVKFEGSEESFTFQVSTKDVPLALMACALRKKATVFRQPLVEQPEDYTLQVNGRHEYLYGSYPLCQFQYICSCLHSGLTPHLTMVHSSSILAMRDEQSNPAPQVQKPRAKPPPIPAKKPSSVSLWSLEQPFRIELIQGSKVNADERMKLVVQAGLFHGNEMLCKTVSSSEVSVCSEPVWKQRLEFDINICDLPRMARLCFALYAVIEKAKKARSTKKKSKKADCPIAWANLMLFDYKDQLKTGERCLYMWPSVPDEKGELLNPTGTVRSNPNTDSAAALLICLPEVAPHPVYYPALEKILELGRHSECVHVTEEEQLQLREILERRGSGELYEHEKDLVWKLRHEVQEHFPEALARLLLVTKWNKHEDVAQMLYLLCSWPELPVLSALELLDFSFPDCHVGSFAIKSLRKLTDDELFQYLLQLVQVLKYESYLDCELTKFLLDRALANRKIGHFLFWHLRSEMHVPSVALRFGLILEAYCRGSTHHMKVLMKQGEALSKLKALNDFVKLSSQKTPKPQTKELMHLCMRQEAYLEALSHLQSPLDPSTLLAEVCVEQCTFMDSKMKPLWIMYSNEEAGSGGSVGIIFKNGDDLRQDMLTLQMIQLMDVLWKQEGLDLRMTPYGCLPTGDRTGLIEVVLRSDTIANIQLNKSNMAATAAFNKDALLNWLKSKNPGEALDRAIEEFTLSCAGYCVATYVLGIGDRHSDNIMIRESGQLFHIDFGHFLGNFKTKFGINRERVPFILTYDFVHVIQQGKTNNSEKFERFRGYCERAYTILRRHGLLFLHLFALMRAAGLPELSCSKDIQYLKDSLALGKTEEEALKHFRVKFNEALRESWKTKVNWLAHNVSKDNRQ
Sequence (P27986 whole entry partner): as the sequence (P27986 whole entry partner) above

| Compound | Assayed System | IC50 |
| --- | --- | --- |
| C[C@H](NC(=O)c1c(N)nn2cccnc12)c1cc2cccc(C#Cc3cocn3)c2c(=O)n1-c1ccccc1 | PI3K δ (Homo sapiens (Human), UniProt O00329) | 1 to 5 µM |
| C[C@H](O)C#Cc1cccc2cc([C@H](C)NC(=O)c3c(N)nn4cccnc34)n(-c3ccccc3)c(=O)c12 | PI3K δ (Homo sapiens (Human), UniProt O00329) | 1 to 5 µM |
| C[C@H](NC(=O)c1c(N)nn2cccnc12)c1cc2cccc(C#Cc3cccnc3)c2c(=O)n1-c1ccccc1 | PI3K δ (Homo sapiens (Human), UniProt O00329) | 5 to 10 µM |
| C[C@H](NC(=O)c1c(N)nn2cccnc12)c1cc2cccc(C#Cc3cnc[nH]3)c2c(=O)n1-c1ccccc1 | PI3K δ (Homo sapiens (Human), UniProt O00329) | 5 to 10 µM |
| C[C@H](NC(=O)c1c(N)nn2cccnc12)c1cc2cccc(C#CC(C)(C)O)c2c(=O)n1-c1ccccc1 | PI3K δ (Homo sapiens (Human), UniProt O00329) | 5 to 10 µM |

Exercise: State IC50 on PI3K δ (Homo sapiens (Human), UniProt O00329). Entry: Cn1cc(C#Cc2cccc3cc(CNC(=O)c4c(N)nn5cccnc45)n(-c4ccccc4)c(=O)c23)cn1
Key: 5 to 10 µM

Exercise: State IC50 on PI3K δ (Homo sapiens (Human), UniProt O00329). Entry: C[C@H](NC(=O)c1c(N)nn2cccnc12)c1cc2cccc(CC(=O)c3cnn(C)c3)c2c(=O)n1-c1ccccc1
Key: 5 to 10 µM

# credit: patent US9775844B2
